Field: IC50. Provide a value for each of the compounds that follow.
assay: Inhibition of Staphylococcus aureus sortase A
Give a bare numeral; the unit µg/mL is implied.

Measured IC50 of COC(=O)Cc1cc(O)cc(C/C=C(/C)CC/C=C(\C)CC/C=C(\C)[C@@H](O)[C@@H](O)C=C(C)C)c1O [ISONAHOCOL D1] : 23

Measured IC50 of COC(=O)Cc1cc(O)cc(C/C=C(/C)CCC(=O)C(C)CC/C=C(\C)C[C@H](O)C=C(C)C)c1O (some centres undefined) : 23

Reference source: ChEMBL document CHEMBL1140167
